Listing: phosphorylation enrichment of selected sequences
- target of assay: EPHB1 (UniProt P54762)
- Sequence (P54762 whole entry, looked up): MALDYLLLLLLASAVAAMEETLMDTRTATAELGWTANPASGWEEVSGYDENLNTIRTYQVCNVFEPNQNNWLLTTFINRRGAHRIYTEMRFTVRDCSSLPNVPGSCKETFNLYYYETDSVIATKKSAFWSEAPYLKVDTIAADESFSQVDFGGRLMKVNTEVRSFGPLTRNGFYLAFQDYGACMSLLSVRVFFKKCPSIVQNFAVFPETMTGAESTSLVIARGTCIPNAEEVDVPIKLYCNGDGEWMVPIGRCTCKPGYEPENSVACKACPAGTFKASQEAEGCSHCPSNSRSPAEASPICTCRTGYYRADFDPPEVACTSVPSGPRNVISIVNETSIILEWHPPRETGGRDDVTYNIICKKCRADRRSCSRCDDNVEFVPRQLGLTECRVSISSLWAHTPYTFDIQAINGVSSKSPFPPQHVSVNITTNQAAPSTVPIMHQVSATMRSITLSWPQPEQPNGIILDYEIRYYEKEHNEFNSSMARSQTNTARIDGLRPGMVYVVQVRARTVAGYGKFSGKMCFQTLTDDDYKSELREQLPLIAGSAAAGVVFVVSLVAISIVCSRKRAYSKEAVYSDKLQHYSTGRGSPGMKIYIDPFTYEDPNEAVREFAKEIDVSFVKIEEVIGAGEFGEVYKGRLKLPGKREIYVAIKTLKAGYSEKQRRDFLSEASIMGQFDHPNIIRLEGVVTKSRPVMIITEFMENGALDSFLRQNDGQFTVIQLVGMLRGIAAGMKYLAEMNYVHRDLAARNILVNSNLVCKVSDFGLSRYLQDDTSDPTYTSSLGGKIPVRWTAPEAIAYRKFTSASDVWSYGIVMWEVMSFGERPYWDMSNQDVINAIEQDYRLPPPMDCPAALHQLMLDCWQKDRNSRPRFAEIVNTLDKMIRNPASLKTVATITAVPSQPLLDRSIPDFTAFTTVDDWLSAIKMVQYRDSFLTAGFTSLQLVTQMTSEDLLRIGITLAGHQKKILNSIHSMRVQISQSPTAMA
- experiment description: phosphorylation enrichment, bacterial display (enrichment ratio); higher = better substrate or ligand; peptides without Tyr show the background
Note: the reply should be a number with no unit written.

Solved cases below.
DSNLIYSQIWS [FCRL3_Y662_P660L] | 15.2
SVVVPYEPSEV [TP53_Y220_P223S] | 0.632

Please turn your attention to the following entry.
Find the measured phosphorylation enrichment of TKFRNYLIPNG [CYP2C8_Y379_K383N] with EPHB1 (UniProt P54762) as test system.
0.527

* * *

- target of assay: MERTK (UniProt Q12866)
- Sequence (Q12866 whole entry, looked up): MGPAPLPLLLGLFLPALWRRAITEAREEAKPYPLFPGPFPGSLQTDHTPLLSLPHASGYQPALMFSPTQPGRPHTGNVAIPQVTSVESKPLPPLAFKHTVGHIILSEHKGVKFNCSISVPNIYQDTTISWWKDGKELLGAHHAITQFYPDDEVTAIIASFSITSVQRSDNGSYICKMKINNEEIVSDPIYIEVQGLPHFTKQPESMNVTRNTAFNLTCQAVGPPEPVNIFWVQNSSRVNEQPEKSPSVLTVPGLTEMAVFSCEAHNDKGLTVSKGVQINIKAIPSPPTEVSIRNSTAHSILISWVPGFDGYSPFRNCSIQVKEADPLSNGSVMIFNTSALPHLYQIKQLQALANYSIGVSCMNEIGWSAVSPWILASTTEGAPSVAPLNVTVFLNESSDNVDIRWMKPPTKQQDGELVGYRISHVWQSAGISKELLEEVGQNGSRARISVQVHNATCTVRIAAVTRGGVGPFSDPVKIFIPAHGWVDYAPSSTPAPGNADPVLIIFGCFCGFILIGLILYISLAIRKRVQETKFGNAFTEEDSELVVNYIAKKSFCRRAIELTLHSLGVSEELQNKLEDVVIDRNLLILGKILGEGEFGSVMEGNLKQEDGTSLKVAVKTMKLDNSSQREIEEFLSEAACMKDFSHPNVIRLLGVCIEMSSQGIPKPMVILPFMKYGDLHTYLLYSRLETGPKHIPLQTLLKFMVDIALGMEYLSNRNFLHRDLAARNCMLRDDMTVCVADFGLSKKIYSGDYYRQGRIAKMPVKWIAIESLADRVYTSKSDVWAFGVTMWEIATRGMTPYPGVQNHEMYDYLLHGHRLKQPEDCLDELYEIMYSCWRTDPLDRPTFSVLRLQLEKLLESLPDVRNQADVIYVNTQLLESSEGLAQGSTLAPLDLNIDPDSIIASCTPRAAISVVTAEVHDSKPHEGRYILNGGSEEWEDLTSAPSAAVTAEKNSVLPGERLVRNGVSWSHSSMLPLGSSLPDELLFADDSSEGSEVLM
- experiment description: phosphorylation enrichment, bacterial display (enrichment ratio); higher = better substrate or ligand; peptides without Tyr show the background
Use 0.4 as the dividing line for phosphorylation enrichment, with the line itself on the 1.0 side and lower values as 0.0.

Use the examples below as a reference point.
KGSEGYLAATF [NF1_Y2503_YF] | 1.0
TIAIRYSHSRR [ACOXL_Y260] | 1.0
AKIDGYIISFR | 0.0

Form field: phosphorylation enrichment at least 0.4? Entry: AATTAYSKPKR [MAP3K7_Y405]
0.0

Form field: phosphorylation enrichment at least 0.4? Entry: KNKNRYKNVLP [PTPN11_Y279_I282V]
1.0

Form field: phosphorylation enrichment at least 0.4? Entry: KGERGYPGTPG [COL4A1_Y348]
0.0

Form field: phosphorylation enrichment at least 0.4? Entry: NTGFFYDLFGG [PTPN11_Y63_D61Y_YF]
1.0

* * *

- System: Fer (mouse)
- experiment description: phosphorylation enrichment, bacterial display (enrichment ratio); higher = better substrate or ligand; peptides without Tyr show the background
measured property: phosphorylation enrichment

KWELRYMHSRV [ABCD1_Y281_G277W] | 0.457
FQEKGYNKELR [CHRND_Y38] | 0.376
IGSHAYGDQFR [IDH1_Y135_R132S_YF] | 0.394
SYTDPYAQPSL [KMT2D_Y2378_P2382S] | 0.479
VKMLEYRGKDV [CASP5_Y74_L75R] | 0.495
KTVQDYLEKFY [MMP8_Y36] | 0.562
SSWKLYPRMLR [HAO1_Y50_R46S] | 0.454
QNKEDYAGLKE [GSTO1_Y139] | 2.22
RVFIKYLPEWT [PSEN1_Y240_L235R] | 1.02
GFGGGYGGVLT [KRT19_Y65_A60G_YF] | 0.492

Please supply the value of reported phosphorylation enrichment for the item VATRWYRSLEL [CDKL5_Y177_P180L]
0.357

Please supply the value of reported phosphorylation enrichment for the item SPYAVYLFFTF [RPGRIP1_Y826_R827L]
0.628

Please supply the value of reported phosphorylation enrichment for the item ENELTYYCCKK [CD59_Y86]
0.779

Please supply the value of reported phosphorylation enrichment for the item RQEEEYKRLSE [SFSWAP_Y133]
0.892

Please supply the value of reported phosphorylation enrichment for the item GLRCGYGVLGG [KRTAP20-2_Y15_Y13C]
0.484

Please supply the value of reported phosphorylation enrichment for the item AEMKRYAESSS [RAI14_Y869]
0.372

Please supply the value of reported phosphorylation enrichment for the item PPVVNYEQDAR [FER_Y402_E404Q]
0.679

Please supply the value of reported phosphorylation enrichment for the item LDVGEYCVPRG [BEX1_Y43_A40V]
0.842

Please supply the value of reported phosphorylation enrichment for the item ITKQEYDEAGP [ACTA1_Y364]
0.494

Please supply the value of reported phosphorylation enrichment for the item PSRKDYETFQS [CTNND2_Y1154_P1159S_YF]
0.518

Please supply the value of reported phosphorylation enrichment for the item TKQLTYEEQFL [PIK3C3_Y310_D314Y_YF]
1.03

Please supply the value of reported phosphorylation enrichment for the item GMIQAYSSSQR [DES_Y5_S2I]
0.319

Please supply the value of reported phosphorylation enrichment for the item RLSVDYGKKSK [TUBA3E_Y161_S162G]
0.377

* * *

- target of assay: Fyn (UniProt P06241)
- Sequence (P06241 whole entry, looked up): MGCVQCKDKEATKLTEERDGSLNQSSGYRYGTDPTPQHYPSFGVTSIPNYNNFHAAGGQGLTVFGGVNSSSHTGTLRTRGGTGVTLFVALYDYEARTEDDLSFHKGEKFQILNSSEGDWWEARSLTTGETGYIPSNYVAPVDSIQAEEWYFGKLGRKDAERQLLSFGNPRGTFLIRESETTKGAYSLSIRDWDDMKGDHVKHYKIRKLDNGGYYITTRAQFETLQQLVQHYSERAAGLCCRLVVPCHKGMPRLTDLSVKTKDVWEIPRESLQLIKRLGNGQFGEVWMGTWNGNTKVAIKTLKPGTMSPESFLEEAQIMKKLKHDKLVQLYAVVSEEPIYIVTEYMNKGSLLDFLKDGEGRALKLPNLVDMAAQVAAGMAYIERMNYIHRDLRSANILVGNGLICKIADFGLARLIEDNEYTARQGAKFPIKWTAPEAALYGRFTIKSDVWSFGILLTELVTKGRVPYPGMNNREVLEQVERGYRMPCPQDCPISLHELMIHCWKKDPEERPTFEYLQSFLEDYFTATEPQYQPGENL
- experiment description: phosphorylation enrichment, bacterial display (enrichment ratio); higher = better substrate or ligand; peptides without Tyr show the background
measured property: phosphorylation enrichment
Note: the reply should be a number with no unit written.

Solved cases below.
KGSEGYLAATF [NF1_Y2503_YF] | 0.501
GDGRFYMMEAI [PGM1_Y66_K68M] | 0.51

Please turn your attention to the following entry.
Please supply the value of reported phosphorylation enrichment for the item SYTDPYAQPSL [KMT2D_Y2378_P2382S]
0.611

* * *

Listing: phosphorylation enrichment of selected sequences
- target of assay: FGFR3 (UniProt P22607)
- experiment description: phosphorylation enrichment, bacterial display (enrichment ratio); higher = better substrate or ligand; peptides without Tyr show the background
Note: the reply should be a number with no unit written.

KFFRVYQGQQP [MUTYH_Y494_V490F] | 0.78
FGFPGYQSKHF [TIMP3_Y177_YF] | 0.499
EHTTLYSNNST [KANSL1_Y223] | 0.431
PEAALYGRFTF [FYN_Y440_I445F] | 0.971
TESALYGCTVV [KIAA1804_Y724_L729V] | 0.802

Please supply the value of reported phosphorylation enrichment for the item PVQAVYQKVVA [HBB_Y131_A130V]
0.617

Please supply the value of reported phosphorylation enrichment for the item ADFPDCKFRPR [SOX11_Y116_Y116C_YF]
0.616

* * *

Listing: phosphorylation enrichment of selected sequences
- target of assay: Jak2 (UniProt O60674)
- Sequence (O60674 whole entry, looked up): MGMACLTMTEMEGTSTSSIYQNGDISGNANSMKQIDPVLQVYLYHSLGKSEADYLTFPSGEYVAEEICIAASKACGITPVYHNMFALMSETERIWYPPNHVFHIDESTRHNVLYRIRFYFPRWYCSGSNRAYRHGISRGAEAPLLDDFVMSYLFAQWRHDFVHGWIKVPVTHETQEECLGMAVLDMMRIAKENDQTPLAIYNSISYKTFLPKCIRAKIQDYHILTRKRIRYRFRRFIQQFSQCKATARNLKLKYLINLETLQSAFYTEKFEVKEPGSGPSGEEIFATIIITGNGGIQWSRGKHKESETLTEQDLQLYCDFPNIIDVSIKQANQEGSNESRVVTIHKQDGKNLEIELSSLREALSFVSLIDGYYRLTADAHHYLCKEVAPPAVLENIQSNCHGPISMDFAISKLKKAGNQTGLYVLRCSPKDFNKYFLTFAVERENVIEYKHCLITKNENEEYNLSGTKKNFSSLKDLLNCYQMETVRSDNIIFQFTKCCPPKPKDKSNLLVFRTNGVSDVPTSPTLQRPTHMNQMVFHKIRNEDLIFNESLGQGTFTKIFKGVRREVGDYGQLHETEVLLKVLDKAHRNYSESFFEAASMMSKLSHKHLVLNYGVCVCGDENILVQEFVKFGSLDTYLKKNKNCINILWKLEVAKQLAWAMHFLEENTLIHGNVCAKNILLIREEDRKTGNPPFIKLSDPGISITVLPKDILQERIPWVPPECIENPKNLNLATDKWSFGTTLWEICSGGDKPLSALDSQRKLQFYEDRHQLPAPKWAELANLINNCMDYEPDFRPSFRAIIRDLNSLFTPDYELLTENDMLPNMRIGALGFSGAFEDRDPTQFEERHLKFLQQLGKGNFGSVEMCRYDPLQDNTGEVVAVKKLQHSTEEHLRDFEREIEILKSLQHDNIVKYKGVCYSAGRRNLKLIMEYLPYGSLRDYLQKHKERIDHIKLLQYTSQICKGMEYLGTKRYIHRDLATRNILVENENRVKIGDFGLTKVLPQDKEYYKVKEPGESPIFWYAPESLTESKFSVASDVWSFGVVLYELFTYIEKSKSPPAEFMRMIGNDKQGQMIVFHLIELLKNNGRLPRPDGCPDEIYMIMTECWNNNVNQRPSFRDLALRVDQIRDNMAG
- experiment description: phosphorylation enrichment, bacterial display (enrichment ratio); higher = better substrate or ligand; peptides without Tyr show the background
Note: the reply should be a number with no unit written.

Solved cases below.
TNQVIYLNPPI [DYNC1H1_Y970] | 0.706
TNYRLYLRSLE [MTM1_Y71] | 1.22

Find the measured phosphorylation enrichment of GNYSGYDDAWD [POLR1C_Y36] with Jak2 (UniProt O60674) as test system.
1.29

* * *

Listing: SH2 binding enrichment of selected sequences
- target of assay: Grb2 SH2 (UniProt P62993)
- Sequence (P62993 whole entry, looked up): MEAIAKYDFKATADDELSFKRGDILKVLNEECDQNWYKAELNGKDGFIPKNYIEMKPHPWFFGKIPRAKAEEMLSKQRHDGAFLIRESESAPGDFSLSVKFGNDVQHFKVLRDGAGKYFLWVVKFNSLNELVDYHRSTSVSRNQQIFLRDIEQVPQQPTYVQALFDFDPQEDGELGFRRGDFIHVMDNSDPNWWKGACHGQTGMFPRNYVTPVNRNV
- experiment description: SH2 binding enrichment of the phosphorylated peptide, bacterial display (enrichment ratio); higher = better substrate or ligand; peptides without Tyr show the background
Note: the reply should be a number with no unit written.

MCTVDYLLRLQ [RYR1_Y3921_I3916M] | 0.84
CTTIHSNFMCN [TP53_Y234_Y234S_YF] | 0.924
KGSEGYLAATF [NF1_Y2503_YF] | 0.766
KLQKFYRKNPD [EHHADH_Y683_Q685K_YF] | 0.86
ETAENYLGHTA [HSPA9_Y181] | 0.972
TWSRSYRSDRL [CRYBB1_Y131_S129R] | 0.636

Please turn your attention to the following entry.
Please supply the value of reported SH2 binding enrichment for the item VKANTYEKFWL [GATM_Y100_P105L_YF]
0.819

* * *

- target of assay: Fes (UniProt P07332)
- Sequence (P07332 whole entry, looked up): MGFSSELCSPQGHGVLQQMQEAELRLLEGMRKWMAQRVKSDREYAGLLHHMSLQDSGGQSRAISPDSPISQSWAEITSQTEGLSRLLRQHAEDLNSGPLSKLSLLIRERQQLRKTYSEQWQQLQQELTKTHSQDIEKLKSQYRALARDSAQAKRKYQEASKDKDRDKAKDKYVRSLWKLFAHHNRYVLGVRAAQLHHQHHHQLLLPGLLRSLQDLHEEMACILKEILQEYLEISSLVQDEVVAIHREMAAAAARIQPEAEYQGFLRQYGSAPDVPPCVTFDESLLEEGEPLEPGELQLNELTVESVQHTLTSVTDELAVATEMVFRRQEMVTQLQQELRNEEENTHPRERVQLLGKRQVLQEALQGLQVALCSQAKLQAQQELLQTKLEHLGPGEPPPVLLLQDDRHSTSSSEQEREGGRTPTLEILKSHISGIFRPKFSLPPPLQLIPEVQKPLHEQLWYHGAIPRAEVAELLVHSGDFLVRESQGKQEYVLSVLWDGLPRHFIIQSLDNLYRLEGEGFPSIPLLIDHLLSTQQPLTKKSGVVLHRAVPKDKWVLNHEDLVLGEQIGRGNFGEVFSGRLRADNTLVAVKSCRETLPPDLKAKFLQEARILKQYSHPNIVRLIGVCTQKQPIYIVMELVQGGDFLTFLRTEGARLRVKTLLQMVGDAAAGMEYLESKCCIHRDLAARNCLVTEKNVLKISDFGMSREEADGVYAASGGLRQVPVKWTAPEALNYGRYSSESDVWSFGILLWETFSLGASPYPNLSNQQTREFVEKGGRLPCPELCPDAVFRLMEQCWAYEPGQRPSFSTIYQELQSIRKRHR
- experiment description: phosphorylation enrichment, bacterial display (enrichment ratio); higher = better substrate or ligand; peptides without Tyr show the background
measured property: phosphorylation enrichment
Note: the reply should be a number with no unit written.

Solved cases below.
EALDFYGELRT [PTEN_Y155_V158L] | 1.48
VPHECYAKVFD [ALB_Y394_D389V] | 1.22

Please supply the value of reported phosphorylation enrichment for the item AAAAVYTFLPD [MYORG_Y36_M35V]
1.2

Please supply the value of reported phosphorylation enrichment for the item KENITYMKREQ [L1TD1_Y24]
1.05

Please supply the value of reported phosphorylation enrichment for the item SSVKLYRVFCD [FGB_Y266_P265L_YF]
1.12

Please supply the value of reported phosphorylation enrichment for the item SCRENYSDSEE [LEMD3_Y258]
1.14

Please supply the value of reported phosphorylation enrichment for the item GHLFANDWISI [BEST1_Y227_Y227N_YF]
0.789

Please supply the value of reported phosphorylation enrichment for the item EKQARYEIVEE [CDH5_Y223_V227E]
1.24

Please supply the value of reported phosphorylation enrichment for the item NTGYYYDLYGG [PTPN11_Y63_D61Y]
1.25

Please supply the value of reported phosphorylation enrichment for the item PVQDAYQKVVA [HBB_Y131_A129D]
0.453

* * *

- target of assay: Fes (UniProt P07332)
- experiment description: phosphorylation enrichment, bacterial display (enrichment ratio); higher = better substrate or ligand; peptides without Tyr show the background
Would you mind sorting the entries by phosphorylation enrichment according to these classes? 1 = under 0.9, 2 = from 0.9 up to 1, 3 = 1 and over

Use the examples below as a reference point.
VPLATYMRIYK [RPL21_Y30] | 2
SARFHYLMAEK [LDHB_Y173_R172H] | 1
NFRTTCVNANE [KCNH2_Y475_Y475C] | 2
FLAVGYHKLHI [IDS_Y225_P228L] | 3

# bin lookup: classify WISNRYLDFSS [PRPH2_Y184] by its phosphorylation enrichment
2

# bin lookup: classify SLAARYFNWVC [FLT4_Y1230_S1235C_YF] by its phosphorylation enrichment
3

# bin lookup: classify TAGFSYEKWEI [TEC_Y360] by its phosphorylation enrichment
3

# bin lookup: classify QISQDYGVLLE [PRDX3_Y172_R170Q] by its phosphorylation enrichment
3

# bin lookup: classify NLMPAYYKCIQ [CYP21A2_Y190] by its phosphorylation enrichment
3

# bin lookup: classify FDFKKYGKGLR [ZNF445_Y433_YF] by its phosphorylation enrichment
1

# bin lookup: classify FIAVGYVDDSQ [HLA-A_Y51_T55S] by its phosphorylation enrichment
3

# bin lookup: classify REGAKYVSHSA [ASS1_Y113_G117S] by its phosphorylation enrichment
1

# bin lookup: classify AEARMYGVLPW [PLP1_Y207_D203E] by its phosphorylation enrichment
1

# bin lookup: classify HQEPVYSVAFS [TBL1X_Y509] by its phosphorylation enrichment
3

# bin lookup: classify TEIGQYGNGLK [MORC2_Y100_Q96E] by its phosphorylation enrichment
1

# bin lookup: classify LDYNEYFRNLN [HPRT1_Y198_D201N] by its phosphorylation enrichment
3

# bin lookup: classify FSGDCYRIQGR [DDR2_Y741_Y740C_YF] by its phosphorylation enrichment
3

# bin lookup: classify LKGQVYILGWE [ASS1_Y359_R363W] by its phosphorylation enrichment
3
